meta.source: paper PMC8654832

pIC50: −log10 of the molar value.
# pIC50 per entry for hCK2α (Homo sapiens, UniProt P68400)
result type: pIC50

| compound | target of assay | reported result |
| --- | --- | --- |
| Brc1cc2nn[nH]c2cc1Br [HBBH, 5,6-dibromo-1H-benzotriazole, reference compound] | hCK2α (Homo sapiens, UniProt P68400) | 5.92 |
| Ic1cc2nn[nH]c2cc1I [HIIH, 5,6-diiodo-1H-benzotriazole] | hCK2α (Homo sapiens, UniProt P68400) | 6.11 |
| Brc1c(I)c(I)c(Br)c2[nH]nnc12 [BIIB, 4,7-dibromo-5,6-diiodo-1H-benzotriazole] | hCK2α (Homo sapiens, UniProt P68400) | 6.64 |

* * *

Tested on: HEPG2 (hepatocellular carcinoma)
Assay: Cell viability, MTT assay
Conditions: Homo sapiens, HepG2, 72 h, read-out: Cell viability data, IC50

| compound | IC50, µM |
| --- | --- |
| Brc1c(I)c(I)c(Br)c2[nH]nnc12 | 1.5 |
| Ic1cc2nn[nH]c2cc1I | 3.3 |
| Brc1c(Br)c(Br)c2[nH]nnc2c1Br | 13 |
| Brc1cc2nn[nH]c2cc1Br [HBBH, 5,6-dibromo-1H-benzotriazole, reference compound] | 18 |
